Experiment: Bioavailability in rat after intravenous administration at 2 mpk
Assay type: ADME, organism-based
Conditions: in vivo, read-out: Bioavailabiility
assay-readout: bioavailability (%)
Numeric answer only, unit % assumed.

Value of bioavailability reported for the molecule CCCC1=C(C(=O)OCC)C(c2cccc(C)c2)NC(=O)N1 (stereo unspecified) is 2

---

Experiment: Bioavailability in rat after intravenous administration at 1 mpk
Format: ADME, organism-based
Settings: in vivo, read-out: Bioavailabiility
assay-readout: bioavailability (%)
Numeric answer only, unit % assumed.

Value of bioavailability reported for the compound CCCC1=C(C(=O)OCc2ccc(C(=O)NCCN3CCCCC3)cc2)C(c2cccc(C)c2)NC(=O)N1 (stereo unspecified) is 65

---

System: monkey
Test: Bioavailability in monkey after intravenous administration at 1 mpk
Conditions: in vivo, read-out: Bioavailabiility
assay-readout: bioavailability (%)
Numeric answer only, unit % assumed.

Value of bioavailability reported for the compound CCCC1=C(C(=O)OCc2ccc(C(=O)NCCN3CCCCC3)cc2)C(c2cccc(C)c2)NC(=O)N1 (stereo unspecified) is 13

---

Assay: Bioavailability in rat after peroral administration at 30 mpk
Type: ADME, organism-based
Details: in vivo, po, 30 mg/kg, read-out: Bioavailabiility
assay-readout: bioavailability (%)
Numeric answer only, unit % assumed.

Value of bioavailability reported for the molecule CCCC1=C(C(=O)OCc2ccc(C(=O)NCCN3CCCCC3)cc2)C(c2cccc(C)c2)NC(=O)N1 (stereo unspecified) is 65

---

Tested on: monkey
Experiment: Bioavailability in monkey after peroral administration at 10 mpk
Conditions: in vivo, po, 10 mg/kg, read-out: Bioavailabiility
assay-readout: bioavailability (%)
Numeric answer only, unit % assumed.

Value of bioavailability reported for the compound CCCC1=C(C(=O)OCc2ccc(C(=O)NCCN3CCCCC3)cc2)C(c2cccc(C)c2)NC(=O)N1 (stereo unspecified) is 13
